Provenance of the data: patent US5786508A

# System: Kynurenine Aminotransferase (KAT)
# ASSAY_SUMMARY: Determination of KAT activity inhibition in rat brain homogenate
# Assay type: biochemical
# RUN_PARAMETERS: 100 μM, 2 μM [3H]KYN, 2 h at 37° C., pH 8.0
PROPERTY: KYNA production % of inhibition (%)

- MOLECULE: "Nc1ccc(F)cc1C(=O)CC(N)C(=O)O (stereo not drawn)"
  PROPERTY: "KYNA production % of inhibition"
  ENDPOINT_VALUE: 30
- MOLECULE: "Cc1ccc(N)c(C(=O)CC(N)C(=O)O)c1 (stereo not drawn)"
  PROPERTY: "KYNA production % of inhibition"
  ENDPOINT_VALUE: 13
- MOLECULE: "Nc1ccc(Br)cc1C(=O)CC(N)C(=O)O (stereo not drawn)"
  PROPERTY: "KYNA production % of inhibition"
  ENDPOINT_VALUE: 52
- MOLECULE: "Nc1ccc(C2CCCCC2)cc1C(=O)CC(N)C(=O)O (stereo not drawn)"
  PROPERTY: "KYNA production % of inhibition"
  ENDPOINT_VALUE: 47
- MOLECULE: "CCc1ccc(N)c(C(=O)CC(N)C(=O)O)c1 (stereo not drawn)"
  PROPERTY: "KYNA production % of inhibition"
  ENDPOINT_VALUE: 30
- MOLECULE: "CCCc1ccc(N)c(C(=O)CC(N)C(=O)O)c1 (stereo not drawn)"
  PROPERTY: "KYNA production % of inhibition"
  ENDPOINT_VALUE: 50

----------
# Test system: KYNA production
# ASSAY_SUMMARY: Determination of inhibition of KYNA production by rat tissue slices (cerebral cortex)
# Assay type: cell-based
# RUN_PARAMETERS: 100 μM, 50 μM L-KYN, 2 h at 37° C.
# Experimental: B) Determination of inhibition of KYNA production by rat tissue slices […] Data were recorded and calculated with a Hewlett-Packard 3390A integrator connected to a model 160 UV absorbance detector (Beckman Instruments, Berkeley, Calif., U.S.A.) set at 340 nm.
Label Satisfied for high-side inhibition at 100 µM (at or above 30%) and Not satisfied for low-side inhibition at 100 µM (below it).

- COMPOUND: "Nc1ccc(Cl)cc1C(=O)CC(N)C(=O)O (centres unmarked)"
  ASSIGNED_CATEGORY: "Satisfied"
- COMPOUND: "CCc1ccc(N)c(C(=O)CC(N)C(=O)O)c1 (centres unmarked)"
  ASSIGNED_CATEGORY: "Not satisfied"
- COMPOUND: "CCCc1ccc(N)c(C(=O)CC(N)C(=O)O)c1 (centres unmarked)"
  ASSIGNED_CATEGORY: "Not satisfied"
- COMPOUND: "Nc1ccc(F)cc1C(=O)CC(N)C(=O)O (centres unmarked)"
  ASSIGNED_CATEGORY: "Satisfied"
- COMPOUND: "Nc1ccc(Br)cc1C(=O)CC(N)C(=O)O (centres unmarked)"
  ASSIGNED_CATEGORY: "Satisfied"
- COMPOUND: "Nc1ccc(C2CCCCC2)cc1C(=O)CC(N)C(=O)O (centres unmarked)"
  ASSIGNED_CATEGORY: "Not satisfied"
- COMPOUND: "Nc1ccc(Cl)cc1C(=O)C[C@H](N)C(=O)O"
  ASSIGNED_CATEGORY: "Satisfied"
- COMPOUND: "CC(C)c1ccc(N)c(C(=O)CC(N)C(=O)O)c1 (centres unmarked)"
  ASSIGNED_CATEGORY: "Not satisfied"
